Source: ChEMBL document CHEMBL1134284

TEST: Antiviral activity against subtype isolate G strain in PBLs (peripheral blood lymphocytes)
Format: ADME, cell-based
ASSAY_SETUP: human, read-out: TC50 (the source's name)
MEASUREMENT_TYPE: CC50

Query Cc1cn([C@H]2C[C@H](N=[N+]=[N-])[C@@H](CO)O2)c(=O)[nH]c1=O [ZIDOVUDINE] yields CC50 of > 170 µM

====

TEST: Antiviral activity against SLKA virus strain in PBLs (peripheral blood lymphocytes)
Assay type: functional, cell-based
ASSAY_SETUP: Homo sapiens
MEASUREMENT_TYPE: pIC50
// pIC50: -log10(molar conc.)

// known answers, use as guide
> print(dat)
                               input.smiles  measurement.type  assay.value
1  CCOC(=O)CCCC=C(c1cc(Br)c(OC)c(C(=O)OC)c1)c1cc(Br)c(OC)c(C(=O)OC)c1             pIC50         5.96
2  COC(=O)CCCC=C(c1cc(Cl)c(OC)c(C(=O)OC)c1)c1cc(Cl)c(OC)c(C(=O)OC)c1             pIC50         5.89
3  CCOC(=O)CCCC=C(c1cc(Cl)c(OC)c(C(=O)OC)c1)c1cc(Cl)c(OC)c(C(=O)OC)c1             pIC50         6.05
4  Cc1cn([C@H]2C[C@H](N=[N+]=[N-])[C@@H](CO)O2)c(=O)[nH]c1=O             pIC50         9.00

Query COC(=O)CCCC=C(c1cc(Br)c(OC)c(C(=O)OC)c1)c1cc(Br)c(OC)c(C(=O)OC)c1 yields pIC50 of 6.00

====

Some compounds, each annotated with its measured IC50.
TESTED_ON: Human immunodeficiency virus type 1 reverse transcriptase (Human immunodeficiency virus 1)
Answer with a number only, understood to be in µM.

// known answers, use as guide
> print(dat)
                               input.smiles  assay.value
1  C#CCCCC=C(c1cc(Br)c(OC)c(C(=O)OC)c1)c1cc(Br)c(OC)c(C(=O)OC)c1            6
2  COC(=O)NCCC=C(c1cc(Cl)c(OC)c(C(=O)OC)c1)c1cc(Cl)c(OC)c(C(=O)OC)c1         4.43
3  COC(=O)c1cc(C(=CCCCC(=O)N(C)C)c2cc(Cl)c(OC)c(C(=O)OC)c2)cc(Cl)c1OC        0.687
4  CCOC(=O)CCCC=C(c1cc(Br)c(OC)c(C(=O)OC)c1)c1cc(Br)c(OC)c(C(=O)OC)c1        0.359
5  C=CCCCC=C(c1cc(Br)c(OC)c(C(=O)OC)c1)c1cc(Br)c(OC)c(C(=O)OC)c1           99

Kindly consider the entry below.
Query COC(=O)c1cc(C(=CCCCC(=O)N2CCCCC2)c2cc(C)c(OC)c(C(=O)OC)c2)cc(C)c1OC yields IC50 of 7.12

====

Some compounds, each annotated with its measured selectivity ratio.
TEST: Ratio of CC50/EC50 was determined
Type: cell-based
ASSAY_SETUP: human, CEM-SS cells; read-out: TI
Output spec: single numeric token, no unit.

// known answers, use as guide
> print(dat)
                                   compound  assay.value
1  COC(=O)c1cc(C(=CCCN2CCOC2=O)c2cc(Cl)c(OC)c(C(=O)OC)c2)cc(Cl)c1OC         6.02
2  C#CCCCC=C(c1cc(Cl)c(OC)c(C(=O)OC)c1)c1cc(Cl)c(OC)c(C(=O)OC)c1           33
3  COC(=O)c1cc(C(=CCCCC(=O)OC(C)C)c2cc(Cl)c(OC)c(C(=O)OC)c2)cc(Cl)c1OC         42.9
4  CCOC(=O)NCCC=C(c1cc(Cl)c(OC)c(C(=O)OC)c1)c1cc(Cl)c(OC)c(C(=O)OC)c1         17.2
5  COC(=O)c1cc(C(=CCCNC(=O)OCC(C)C)c2cc(C)c(OC)c(C(=O)OC)c2)cc(C)c1OC         6.73

Query COC(=O)NCCC=C(c1cc(Br)c(OC)c(C(=O)OC)c1)c1cc(Br)c(OC)c(C(=O)OC)c1 yields selectivity ratio of 40.5

Query COC(=O)c1cc(C(=CCCCC(=O)SC)c2cc(Cl)c(OC)c(C(=O)OC)c2)cc(Cl)c1OC yields selectivity ratio of 5.15

Query COC(=O)c1cc(C(=CCCC[S+](C)[O-])c2cc(Cl)c(OC)c(C(=O)OC)c2)cc(Cl)c1OC (configuration not stated) yields selectivity ratio of 3.15

Query COC(=O)c1cc(C(=CCCN2CCOC2=O)c2cc(Br)c(OC)c(C(=O)OC)c2)cc(Br)c1OC yields selectivity ratio of 104

Query COC(=O)CCCC=C(c1cc(F)c(OC)c(C(=O)OC)c1)c1cc(F)c(OC)c(C(=O)OC)c1 yields selectivity ratio of 36

Query COC(=O)NCCC=C(c1cc(C)c(OC)c(C(=O)OC)c1)c1cc(C)c(OC)c(C(=O)OC)c1 yields selectivity ratio of 59

Query COC(=O)c1cc(C(=CCCCC(=O)N(C)C)c2cc(Cl)c(OC)c(C(=O)OC)c2)cc(Cl)c1OC yields selectivity ratio of 6.94

Query COC(=O)c1cc(C(=CCCCC(=O)N(C)C)c2cc(C)c(OC)c(C(=O)OC)c2)cc(C)c1OC yields selectivity ratio of 4.91

Query CCCOC(=O)CCCC=C(c1cc(C)c(OC)c(C(=O)OC)c1)c1cc(C)c(OC)c(C(=O)OC)c1 yields selectivity ratio of 4.2
